# Test system: NCI/ADR-RES ovarian
# Measurement Description: NCI-60 one-dose screen, 48 h (100 = growth as untreated, 0 = no growth, -100 = all killed)
# Cond: 10 µM unless noted
This is part of a sample that, as a whole, favours compounds with a hit. Of some 83,000 tested, about 20% had one in any assay.
# reported growth; entries follow
Give your result in % as a bare value.

IN: // query growth value for entry C=C(C)[C@@H]1CC[C@]2(C(=O)N3CCCNCC3)CC[C@]3(C)[C@H](CC[C@@H]4[C@@]5(C)CCC(=O)C(C)(C)[C@@H]5CC[C@]43C)[C@@H]12
OUT: 91.8

IN: Could you tell me which growth is on file for O=C1c2cc3c(cc2-c2c1c1ccc(Cl)cc1c(=O)n2C[C@H](O)[C@@H](O)[C@H](O)CO)OCO3 ?
OUT: 7.03

IN: Give the measured growth of COc1ccc(-n2c(/C=C/c3ccc(O)c(OC)c3)cc(/C=C/c3ccc(O)c(OC)c3)nc2=O)cc1 .
OUT: 84.3

====

# Tested on: SK-OV-3 ovarian
# Measurement Description: NCI-60 one-dose screen, 48 h (100 = growth as untreated, 0 = no growth, -100 = all killed)
# Cond: 10 µM unless noted
About 83,000 compounds went through this panel and 20% of them were active in at least one assay; those are over-represented in the sample as a whole.
Metric Name: growth (%)
Output spec: scalar in %, unitless text.

IN: I would be grateful if you could share the reported growth for CCOc1ccc(NC(=O)c2ccoc2COc2ccccc2)cc1 .
OUT: 106

IN: Need growth, item CC(=O)Nc1cc(F)cc(C(F)(F)F)c1Cl
OUT: 106

IN: GET /values?readout=growth&item= CCOC(=O)C/C(=C\c1ccccc1)C(C)=O
OUT: 75.1

IN: # query: growth of entry C[N+](C)(CCCCCC[N+](C)(C)C1c2ccccc2-c2ccccc21)C1c2ccccc2-c2ccccc21
OUT: 111

IN: Would you kindly share the measured growth for O=C(/C=C\c1ccc2c(c1)OCO2)/C=C/c1ccc2c(c1)OCO2 ?
OUT: 92

IN: Any idea what its growth is? The compound is Cc1ccc(Cc2cnc(NC(=O)/C=C/c3cccc(C)c3)s2)cc1
OUT: 15.7

IN: Reported growth for Brc1ccc2[nH]cc(-c3nc(-c4c[nH]c5ncccc45)cs3)c2c1 : what is it?
OUT: 55

IN: Fill in the blank: the reported growth of Cc1c(C)c2c(c(C)c1NC(=O)CCCCCCC(=O)O)CCC(C)(CCCC(C)CCCC(C)CCCC(C)C)O2 (centres undefined) is ____.
OUT: 99.3

IN: So what's the measured growth for this one? N#CC1=C(N)Oc2c(c(N)nn2-c2ccccc2)C1c1ccc(Cl)cc1Cl (centres undefined)
OUT: 92.5

====

# System: A498 renal
# Measurement Description: NCI-60 one-dose screen, 48 h
# Cond: 10 µM unless noted
About 83,000 compounds went through this panel and 20% of them were active in at least one assay; those are over-represented in the sample as a whole. The source made the active and inactive calls. The calls were made as follows: active = growth percent below 10; inactive = the rest.
Just give me one of these, please: y = active, n = inactive

Example results:
{"columns": ["Molecule", "Cat"],
 "data": [
  ["O=C1c2ccccc2C(=Cc2ccccc2)c2ccccc21", "y"],
  ["Cn1cc(-c2csc(-c3cn(C(=O)OC(C)(C)C)c4ccc(Br)cc34)n2)c2cccnc21", "n"]
]}

IN: Test call, this molecule: COc1ccc(C2NC(=O)Nc3ccccc32)c(OC)c1 (stereo not drawn)
OUT: n
